testedTarget: T1, soluble human insulin receptor-immunoglobulin heavy chain chimera (sIR-Fc) (human, UniProt P06213 28-956, limits assumed)
T1 construct: extracellular domain; also called sIR-Ec; not shown: immunoglobulin heavy chain constant domains
assayExplanation: fluorescence polarization competition with FITC-RP9 for sIR-Fc
resultType: IC50 (nM)
# number only, unit nM dropped from output

GGTVWPGYEWLRNA [E8]; 206
SQAGSAFYAWFDQVLRTV [RP15]; 28
FHENFYDWFVQRVSKK (also called H2C (D117)) [H2C]; 66

Query: Record request: IC50 value, item DYKDFYDAIDQLVRGSARAGGTRD (also called 20E2 (D118)) [20E2]
Result: 51
